Quick list: Activity per entry.
molecular target: Toll-like receptor 4 (Mus musculus); assay: Activation of TLR4 in C57BL/6 mouse BMDC cells assessed as AUC of IL6 release after 18 hrs by ELISA relative to N-cyclohexyl-2-(4-oxo-3-phenyl-4,5-dihydro-3H-pyrimido[5,4-b]indol-2-ylthio)acetamide; format: cell-based

>  <COMPOUND>
CCCC(C)NC(=O)CSc1nc2c([nH]c3ccccc32)c(=O)n1-c1ccccc1 (centres undefined)

>  <RELATION>
=

>  <Activity (%)>
12

$$$$
>  <COMPOUND>
CCCCCNC(=O)CSc1nc2c([nH]c3ccccc32)c(=O)n1-c1ccccc1

>  <RELATION>
=

>  <Activity (%)>
40

$$$$
>  <COMPOUND>
CCCCCCCC/C=C\CCCCCCCC(=O)OC[C@H](COP(=O)(O)OCCNC(=O)CSc1nc2c([nH]c3ccccc32)c(=O)n1-c1ccccc1)OC(=O)CCCCCCC/C=C\CCCCCCCC

>  <RELATION>
<

>  <Activity (%)>
1

$$$$
>  <COMPOUND>
Cc1cccc(NC(=O)CSc2nc3c([nH]c4ccccc43)c(=O)n2-c2ccccc2)c1

>  <RELATION>
=

>  <Activity (%)>
19

$$$$

* * *

target: Toll-like receptor 4 (Mus musculus) (UniProt Q9QUK6); assay: Activation of TLR4 in C57BL/6 mouse BMDC cells assessed as AUC of IL6 release after 18 hrs by ELISA relative to N-cyclohexyl-2-(4-oxo-3-phenyl-4,5-dihydro-3H-pyrimido[5,4-b]indol-2-ylthio)acetamide; assay type: cell-based

>  <MOLECULE>
O=C(CSc1nc2c3ccccc3nc-2c(O)n1-c1ccccc1)NCC1CCCO1 (stereo not drawn)

>  <ASSAYED TARGET>
Toll-like receptor 4 (Mus musculus) (UniProt Q9QUK6)
Sequence (Q9QUK6 whole entry): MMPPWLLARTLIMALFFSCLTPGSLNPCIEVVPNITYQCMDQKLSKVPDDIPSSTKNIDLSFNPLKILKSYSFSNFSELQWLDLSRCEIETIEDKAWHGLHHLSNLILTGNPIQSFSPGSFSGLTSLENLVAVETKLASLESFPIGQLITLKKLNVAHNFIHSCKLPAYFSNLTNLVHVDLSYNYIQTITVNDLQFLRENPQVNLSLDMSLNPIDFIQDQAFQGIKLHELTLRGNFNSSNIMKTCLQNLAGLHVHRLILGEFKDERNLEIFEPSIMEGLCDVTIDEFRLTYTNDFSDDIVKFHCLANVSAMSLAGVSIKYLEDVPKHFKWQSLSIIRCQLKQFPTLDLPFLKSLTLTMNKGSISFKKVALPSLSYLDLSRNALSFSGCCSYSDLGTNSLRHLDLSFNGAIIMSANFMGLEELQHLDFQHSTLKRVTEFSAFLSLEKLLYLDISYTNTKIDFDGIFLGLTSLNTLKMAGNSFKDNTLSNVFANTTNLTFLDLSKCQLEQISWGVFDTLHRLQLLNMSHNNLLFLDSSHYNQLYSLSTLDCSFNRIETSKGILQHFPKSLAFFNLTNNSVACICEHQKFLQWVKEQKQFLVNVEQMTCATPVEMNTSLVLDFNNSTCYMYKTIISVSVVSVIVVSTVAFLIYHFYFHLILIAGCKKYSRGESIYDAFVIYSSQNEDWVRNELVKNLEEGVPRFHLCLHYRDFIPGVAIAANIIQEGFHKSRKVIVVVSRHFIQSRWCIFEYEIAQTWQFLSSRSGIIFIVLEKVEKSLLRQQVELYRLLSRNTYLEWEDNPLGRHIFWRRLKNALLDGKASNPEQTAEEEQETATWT

>  <Activity>
< 23%

$$$$
>  <MOLECULE>
O=C(CSc1nc2c([nH]c3ccccc32)c(=O)n1CCc1ccccc1)NC1CCCCC1

>  <ASSAYED TARGET>
Toll-like receptor 4 (Mus musculus) (UniProt Q9QUK6)

>  <Activity>
< 1%

$$$$
>  <MOLECULE>
NC(=O)Cn1c2ccccc2c2nc(SCC(=O)NC3CCCCC3)n(-c3ccccc3)c(=O)c21

>  <ASSAYED TARGET>
Toll-like receptor 4 (Mus musculus) (UniProt Q9QUK6)

>  <Activity>
1%

$$$$
>  <MOLECULE>
O=C(CSc1nc2c([nH]c3ccccc32)c(=O)n1-c1ccccc1)Nc1ccccc1F

>  <ASSAYED TARGET>
Toll-like receptor 4 (Mus musculus) (UniProt Q9QUK6)

>  <Activity>
36%

$$$$
>  <MOLECULE>
O=C(CSc1nc2c([nH]c3ccccc32)c(=O)n1-c1ccccc1)NC1CCCCCC1

>  <ASSAYED TARGET>
Toll-like receptor 4 (Mus musculus) (UniProt Q9QUK6)

>  <Activity>
126%

$$$$
>  <MOLECULE>
CC(C)(C)CCNC(=O)CSc1nc2c([nH]c3ccccc32)c(=O)n1-c1ccccc1

>  <ASSAYED TARGET>
Toll-like receptor 4 (Mus musculus) (UniProt Q9QUK6)

>  <Activity>
99%

$$$$
>  <MOLECULE>
O=C(CSc1nc2c([nH]c3ccccc32)c(=O)n1-c1ccccc1)NC1CCCC1

>  <ASSAYED TARGET>
Toll-like receptor 4 (Mus musculus) (UniProt Q9QUK6)

>  <Activity>
53%

$$$$
>  <MOLECULE>
COC(=O)CCCn1c2ccccc2c2nc(SCC(=O)NC3CCCCC3)n(-c3ccccc3)c(=O)c21

>  <ASSAYED TARGET>
Toll-like receptor 4 (Mus musculus) (UniProt Q9QUK6)

>  <Activity>
4%

$$$$
>  <MOLECULE>
O=C(CSc1nc2c([nH]c3ccccc32)c(=O)n1-c1ccccc1)Nc1ccccc1

>  <ASSAYED TARGET>
Toll-like receptor 4 (Mus musculus) (UniProt Q9QUK6)

>  <Activity>
11%

$$$$
>  <MOLECULE>
CCCCCn1c2ccccc2c2nc(SCC(=O)NC3CCCCC3)n(-c3ccccc3)c(=O)c21

>  <ASSAYED TARGET>
Toll-like receptor 4 (Mus musculus) (UniProt Q9QUK6)

>  <Activity>
5%

$$$$
>  <MOLECULE>
O=C(CSc1nc2c([nH]c3ccccc32)c(=O)n1-c1ccc2ccccc2c1)NC1CCCCC1

>  <ASSAYED TARGET>
Toll-like receptor 4 (Mus musculus) (UniProt Q9QUK6)

>  <Activity>
3%

$$$$
>  <MOLECULE>
O=C(CSc1nc2c([nH]c3ccccc32)c(=O)n1-c1ccccc1)Nc1ccc(F)cc1

>  <ASSAYED TARGET>
Toll-like receptor 4 (Mus musculus) (UniProt Q9QUK6)

>  <Activity>
103%

$$$$
>  <MOLECULE>
CCNC(=O)CSc1nc2c([nH]c3ccccc32)c(=O)n1-c1ccccc1

>  <ASSAYED TARGET>
Toll-like receptor 4 (Mus musculus) (UniProt Q9QUK6)

>  <Activity>
< 1%

$$$$
>  <MOLECULE>
CCCCCCNC(=O)CSc1nc2c([nH]c3ccccc32)c(=O)n1-c1ccccc1

>  <ASSAYED TARGET>
Toll-like receptor 4 (Mus musculus) (UniProt Q9QUK6)

>  <Activity>
< 1%

$$$$
>  <MOLECULE>
Cn1c2ccccc2c2nc(SCC(=O)NC3CCCCC3)n(-c3ccccc3)c(=O)c21

>  <ASSAYED TARGET>
Toll-like receptor 4 (Mus musculus) (UniProt Q9QUK6)

>  <Activity>
101%

$$$$
>  <MOLECULE>
O=C(CSc1nc2c([nH]c3ccccc32)c(=O)n1C1CCCCC1)NC1CCCC1

>  <ASSAYED TARGET>
Toll-like receptor 4 (Mus musculus) (UniProt Q9QUK6)

>  <Activity>
47%

$$$$
>  <MOLECULE>
Cc1ccc(-n2c(SCC(=O)NC3CCCCC3)nc3c([nH]c4ccccc43)c2=O)cc1

>  <ASSAYED TARGET>
Toll-like receptor 4 (Mus musculus) (UniProt Q9QUK6)

>  <Activity>
< 1%

$$$$
>  <MOLECULE>
O=C(CSc1nc2c([nH]c3ccccc32)c(=O)n1-c1ccccc1)NC1CCNCC1

>  <ASSAYED TARGET>
Toll-like receptor 4 (Mus musculus) (UniProt Q9QUK6)

>  <Activity>
< 1%

$$$$

Numbers sourced from ChEMBL document CHEMBL2384907.
